Parameter self-splicing fitness (ln): see the listing below.
experimental details: self-splicing fitness, log relative to wild type (ln ratio); higher = more splicing; Tetrahymena group I intron in knt gene, E. coli kanamycin selection, DiMSum; sequences stand for … in CUCUCU…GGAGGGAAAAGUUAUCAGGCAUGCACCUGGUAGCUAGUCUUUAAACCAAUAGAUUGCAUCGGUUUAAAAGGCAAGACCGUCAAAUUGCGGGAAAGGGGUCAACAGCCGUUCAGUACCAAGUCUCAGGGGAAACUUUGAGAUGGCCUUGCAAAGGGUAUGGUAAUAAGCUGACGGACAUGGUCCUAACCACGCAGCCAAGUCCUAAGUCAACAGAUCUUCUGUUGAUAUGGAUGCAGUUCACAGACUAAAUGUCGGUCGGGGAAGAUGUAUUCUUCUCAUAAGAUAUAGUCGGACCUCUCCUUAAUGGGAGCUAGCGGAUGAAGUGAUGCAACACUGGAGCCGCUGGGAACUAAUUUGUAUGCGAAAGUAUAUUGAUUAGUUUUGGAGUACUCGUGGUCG;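 also: selection with 25 µg/mL kanamycin versus none on LB agar overnight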
protocol conditions: 30 °C
Number only, please.

> print(dat)
         entry.sequence  reported.value
1  UGAUAGCAAUAUUACGCUCA           0.162

Returns the measured self-splicing fitness (ln) for the input sequence. Input: CCUCAGCAAUAUUACGUUGA
-3.03

Check CAAAAGCAAUAUUACGGACC too.
-3

Request: GGGGAGCAAUAUUACGGACG
-2.73

Ok, now AUUCAGCAAUAUUACGAAGC
-3.62

Entry CGGCAGCAAUAUUACGCGUG please
-1.47

AAGCAGCAAUAUUACGCCAG ?
-2.67

Record: GGAGAGCAAUAUUACGCAGC
-1.26

Would you mind doing GUCCAGCAAUAUUACGGGAU as well?
-4.04

----------
experimental details: self-splicing fitness, log relative to wild type (ln ratio); higher = more splicing; Tetrahymena group I intron in knt gene, E. coli kanamycin selection, DiMSum; sequences stand for … in CUCUCU…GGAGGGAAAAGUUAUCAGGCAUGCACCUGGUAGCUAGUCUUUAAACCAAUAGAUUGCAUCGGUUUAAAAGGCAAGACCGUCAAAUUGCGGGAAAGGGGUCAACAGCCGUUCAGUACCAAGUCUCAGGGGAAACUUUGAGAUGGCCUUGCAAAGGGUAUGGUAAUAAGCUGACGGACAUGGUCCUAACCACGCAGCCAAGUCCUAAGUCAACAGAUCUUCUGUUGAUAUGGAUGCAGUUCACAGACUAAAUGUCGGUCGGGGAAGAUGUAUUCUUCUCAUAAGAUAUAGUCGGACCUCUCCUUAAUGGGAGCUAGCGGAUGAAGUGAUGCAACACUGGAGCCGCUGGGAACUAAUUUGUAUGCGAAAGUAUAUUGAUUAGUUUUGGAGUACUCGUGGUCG
protocol conditions: 30 °C
Entries get a class label from measured self-splicing fitness (ln). See ranges: lowest = under -2, middle = from -2 up to -1, highest = -1 and over

> print(dat)
         entry.sequence  discrete.label
1  GUGGAGCAAUAUUACGAUGU          lowest
2  AAUCAGCAAUAUUACGCCUA         highest
3  UCCCAGCAAUAUUACGGAUC          lowest
4  UCUCAGCAAUAUUACGAUUA         highest

Okay, now this sequence:
Bin? GGGCAGCAAUAUUACGCCCG
lowest

----------
experimental details: self-splicing fitness, log relative to wild type (ln ratio); higher = more splicing; Tetrahymena group I intron in knt gene, E. coli kanamycin selection, DiMSum; sequences stand for … in CUCUCU…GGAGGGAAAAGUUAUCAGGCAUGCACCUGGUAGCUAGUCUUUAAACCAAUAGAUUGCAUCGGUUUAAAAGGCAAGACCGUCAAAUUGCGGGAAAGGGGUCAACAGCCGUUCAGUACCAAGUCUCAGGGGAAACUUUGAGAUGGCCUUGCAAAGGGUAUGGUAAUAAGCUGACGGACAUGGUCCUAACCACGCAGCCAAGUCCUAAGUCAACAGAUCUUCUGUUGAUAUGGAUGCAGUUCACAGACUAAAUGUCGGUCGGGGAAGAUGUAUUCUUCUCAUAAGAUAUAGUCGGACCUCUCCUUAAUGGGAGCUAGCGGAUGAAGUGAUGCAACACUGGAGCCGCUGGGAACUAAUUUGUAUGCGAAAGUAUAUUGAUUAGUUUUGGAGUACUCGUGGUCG
protocol conditions: 30 °C
// class assignment uses self-splicing fitness (ln) with these ranges: low bracket = under -3, middle bracket = from -3 up to -2, high bracket = -2 and over

> print(dat)
         entry.sequence  discrete.label
1  UCCCAGCAAUAUUACGCACU    high bracket
2  ACAUAGCAAUAUUACGGUCG    high bracket
3  CAAUAGCAAUAUUACGGGAG  middle bracket

Hi, small favor: classify GAUGAGCAAUAUUACGUUGA by its self-splicing fitness (ln) when you get a moment.
low bracket

Follow-up item: UAGUAGCAAUAUUACGCUCG
high bracket

Next: UCUCAGCAAUAUUACGUGAA
high bracket

Queued: UCUUAGCAAUAUUACGGUCA
high bracket

How about UCUGAGCAAUAUUACGUGUG ?
middle bracket

----------
experimental details: self-splicing fitness, log relative to wild type (ln ratio); higher = more splicing; Tetrahymena group I intron in knt gene, E. coli kanamycin selection, DiMSum; sequences stand for … in CUCUCU…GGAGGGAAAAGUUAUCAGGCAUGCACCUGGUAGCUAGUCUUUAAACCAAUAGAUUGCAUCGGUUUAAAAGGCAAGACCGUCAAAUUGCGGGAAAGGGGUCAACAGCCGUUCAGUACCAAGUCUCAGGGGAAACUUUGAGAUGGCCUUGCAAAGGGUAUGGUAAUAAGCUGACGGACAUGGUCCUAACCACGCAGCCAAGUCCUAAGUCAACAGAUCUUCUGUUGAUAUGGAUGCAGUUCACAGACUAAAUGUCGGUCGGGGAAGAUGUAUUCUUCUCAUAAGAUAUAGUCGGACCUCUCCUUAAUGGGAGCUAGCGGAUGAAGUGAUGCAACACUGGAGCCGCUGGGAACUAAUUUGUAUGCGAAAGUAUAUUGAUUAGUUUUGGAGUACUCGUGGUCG
protocol conditions: 37 °C
Assign MET whenever self-splicing fitness (ln) does not fall below -2; assign NOT MET whenever it does.

Check the entry GGAUAGCAAUAUUACGAUCG : does self-splicing fitness (ln) equal or exceed -2?
MET

And UCAUAGCAAUAUUACGAUCA ?
MET

Query AUCGAGCAAUAUUACGGUAA next
NOT MET

For GGGCAGCAAUAUUACGCCUG then?
MET

Same for UAAGAGCAAUAUUACGAUUG
MET

Then CUCUAGCAAUAUUACGUCUU ?
NOT MET

Repeat with AGAUAGCAAUAUUACGCUUC
NOT MET

What do you have for CUUAAGCAAUAUUACGCGUU ?
NOT MET

# repeat for UCGUAGCAAUAUUACGGCUC
MET

Same question, GAUCAGCAAUAUUACGCGAA this time
MET

Now give it for GAUUAGCAAUAUUACGCGUU too.
MET

----------
experimental details: self-splicing fitness, log relative to wild type (ln ratio); higher = more splicing; Tetrahymena group I intron in knt gene, E. coli kanamycin selection, DiMSum; sequences stand for … in CUCUCU…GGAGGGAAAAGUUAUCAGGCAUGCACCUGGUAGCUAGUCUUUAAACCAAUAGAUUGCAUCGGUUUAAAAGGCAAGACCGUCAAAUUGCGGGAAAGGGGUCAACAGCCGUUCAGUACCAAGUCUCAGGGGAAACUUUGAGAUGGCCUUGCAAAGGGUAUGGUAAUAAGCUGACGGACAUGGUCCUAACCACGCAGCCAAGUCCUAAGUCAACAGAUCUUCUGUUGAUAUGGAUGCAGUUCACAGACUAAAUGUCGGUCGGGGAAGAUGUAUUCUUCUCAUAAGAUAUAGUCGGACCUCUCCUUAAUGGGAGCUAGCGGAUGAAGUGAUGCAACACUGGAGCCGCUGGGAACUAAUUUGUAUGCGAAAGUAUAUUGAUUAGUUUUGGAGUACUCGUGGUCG
protocol conditions: 37 °C
Examples of sequences with documented self-splicing fitness (ln) follow.

Solved entries:
> print(dat)
         entry.sequence  reported.value
1  UCAAAGCAAUAUUACGUCCU           -1.98
2  CCGUAGCAAUAUUACGUUGC           -2.04

Okay, next one:
// returns reported self-splicing fitness (ln) for input CAUGAGCAAUAUUACGGCGU
-1.97

----------
Reported self-splicing fitness (ln) values follow for various sequences
experimental details: self-splicing fitness, log relative to wild type (ln ratio); higher = more splicing; Tetrahymena group I intron in knt gene, E. coli kanamycin selection, DiMSum; sequences stand for … in CUCUCU…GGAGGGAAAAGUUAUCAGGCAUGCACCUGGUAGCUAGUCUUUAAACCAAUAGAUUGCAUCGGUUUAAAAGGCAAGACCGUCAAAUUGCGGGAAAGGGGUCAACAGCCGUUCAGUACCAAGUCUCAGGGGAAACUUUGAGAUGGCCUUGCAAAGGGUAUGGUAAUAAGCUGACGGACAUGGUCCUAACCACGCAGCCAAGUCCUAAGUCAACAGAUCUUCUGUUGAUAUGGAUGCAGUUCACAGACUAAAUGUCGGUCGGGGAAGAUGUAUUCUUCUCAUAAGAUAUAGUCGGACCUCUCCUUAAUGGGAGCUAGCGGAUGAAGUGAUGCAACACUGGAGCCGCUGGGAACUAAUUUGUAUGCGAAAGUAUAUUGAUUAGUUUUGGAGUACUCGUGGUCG
protocol conditions: 37 °C
# respond with the number and nothing more

Look over these answered cases.
> print(dat)
         entry.sequence  reported.value
1  CUUAAGCAAUAUUACGUCGC           -1.65
2  UCAGAGCAAUAUUACGAUAU           -2.32
3  AAUUAGCAAUAUUACGUUCG          -0.728
4  UCUUAGCAAUAUUACGACAU           -2.41
5  UUUCAGCAAUAUUACGCGAG           0.301

Could you now look at the following sequence, please?
So what does the record say about self-splicing fitness (ln) for GGUGAGCAAUAUUACGUUUA ?
-1.44
